Details: 290 K; 101.33 kPa; Liquid; Cone and plate viscometry
Collected viscosity values appear next to each entry.
Express your answer in mPa·s, writing the number without its unit.

See these solved cases before continuing.
compound=CCC[n+]1ccn(C)c1C.O=S(=O)([N-]S(=O)(=O)C(F)(F)F)C(F)(F)F measurement_name=viscosity unit_abbrev=mPa·s readout_value=131
compound=CCCC[N+]1(C)CCCC1.FC(F)(F)C(F)(F)[P-](F)(F)(F)(C(F)(F)C(F)(F)F)C(F)(F)C(F)(F)F measurement_name=viscosity unit_abbrev=mPa·s readout_value=355
compound="CCn1cc[n+](C)c1.N#CN=C=[N-] [1-ethyl-3-methylimidazolium dicyanamide]" measurement_name=viscosity unit_abbrev=mPa·s readout_value=24

# lookup: viscosity of CCn1cc[n+](C)c1.F[B-](F)(F)F [1-ethyl-3-methylimidazolium tetrafluoroborate]
46

---

Conditions: 345 K; 101.33 kPa; Liquid; Cone and plate viscometry
Measurement Name: viscosity (mPa·s)
Response body: numeric value in mPa·s, unit text excluded.

compound="CCn1cc[n+](C)c1.N#CN=C=[N-] [1-ethyl-3-methylimidazolium dicyanamide]" unit_abbrev=mPa·s readout_value=13
compound=CCC[n+]1ccn(C)c1C.O=S(=O)([N-]S(=O)(=O)C(F)(F)F)C(F)(F)F unit_abbrev=mPa·s readout_value=24
compound=CCCC[N+]1(C)CCCC1.FC(F)(F)C(F)(F)[P-](F)(F)(F)(C(F)(F)C(F)(F)F)C(F)(F)C(F)(F)F unit_abbrev=mPa·s readout_value=41

For the compound shown here, CCn1cc[n+](C)c1.F[B-](F)(F)F [1-ethyl-3-methylimidazolium tetrafluoroborate] , give the reported viscosity.
16

---

Conditions: 360 K; 101.33 kPa; Liquid; Cone and plate viscometry
Measurement Name: viscosity (mPa·s)
The response must be a number in mPa·s with no trailing unit.

molecule="CCn1cc[n+](C)c1.F[B-](F)(F)F [1-ethyl-3-methylimidazolium tetrafluoroborate]" readout_value=15
molecule="CCn1cc[n+](C)c1.N#CN=C=[N-] [1-ethyl-3-methylimidazolium dicyanamide]" readout_value=12
molecule=CCC[n+]1ccn(C)c1C.O=S(=O)([N-]S(=O)(=O)C(F)(F)F)C(F)(F)F readout_value=20

From here, focus on the item given below.
I would be grateful if you could share the reported viscosity for CCCC[N+]1(C)CCCC1.FC(F)(F)C(F)(F)[P-](F)(F)(F)(C(F)(F)C(F)(F)F)C(F)(F)C(F)(F)F .
30

---

Conditions: 310 K; 101.33 kPa; Liquid; Cone and plate viscometry
Reported values of viscosity for individual entries
Entry rule: numbers only, all in mPa·s.

Dear colleague, I am looking for the recorded viscosity of the following compound: CCn1cc[n+](C)c1.F[B-](F)(F)F [1-ethyl-3-methylimidazolium tetrafluoroborate]
27

Fill in the blank: the reported viscosity of CCC[n+]1ccn(C)c1C.O=S(=O)([N-]S(=O)(=O)C(F)(F)F)C(F)(F)F is ____.
58

Any idea what its viscosity is? The compound is CCn1cc[n+](C)c1.N#CN=C=[N-] [1-ethyl-3-methylimidazolium dicyanamide]
17

Record request: viscosity value, item CCCC[N+]1(C)CCCC1.FC(F)(F)C(F)(F)[P-](F)(F)(F)(C(F)(F)C(F)(F)F)C(F)(F)C(F)(F)F
129

Every entry's value here was drawn from the NIST ThermoML archive (doi:10.1021/je900405j).
